TESTED ON: T1, biotin-MBP-tagged AtHAB1 (residues 172-511), Q9CAJ0
T1 chain: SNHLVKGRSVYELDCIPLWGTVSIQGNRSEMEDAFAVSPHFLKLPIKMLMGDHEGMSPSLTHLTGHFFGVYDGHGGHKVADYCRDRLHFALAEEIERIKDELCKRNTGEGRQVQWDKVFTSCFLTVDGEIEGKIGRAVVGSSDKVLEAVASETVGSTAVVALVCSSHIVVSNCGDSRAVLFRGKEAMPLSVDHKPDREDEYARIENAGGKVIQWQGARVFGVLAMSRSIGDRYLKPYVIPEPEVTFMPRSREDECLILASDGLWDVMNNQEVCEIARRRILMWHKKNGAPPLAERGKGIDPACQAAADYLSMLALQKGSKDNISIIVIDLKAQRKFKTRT
PROTOCOL DETAILS: AlphaScreen
REPORTED CONDITIONS: chain shown with the change; ABA (10 μM); parent: est. 12000; read off a plot
MEASURED PARAMETER: response (photon counts)
// no unit string in output, number only

BINDER	response (photon counts)
H6-SUMO-tagged FePYR1 E160A (protein) MEQQPAAAEPEVPAGLGLTAAEYAELQPTVEAYHRYAVGPGQCSSLVAQRIEAPAAAVWAIVRRFDCPQVYKHFIRSCALRPDPDAGDELRPGRLREVSVISGLPASTSTERLDLLDDARRAFGFTITGGEHRLANYRSVTTVSELAPAAPAKICTVVLASYVVDVPEGNSEEDTRLFADTVVRLNLQKLKSLAEANATSAAAQATPPPQAE	4900
H6-SUMO-tagged FePYR1 N186A (protein) MEQQPAAAEPEVPAGLGLTAAEYAELQPTVEAYHRYAVGPGQCSSLVAQRIEAPAAAVWAIVRRFDCPQVYKHFIRSCALRPDPDAGDELRPGRLREVSVISGLPASTSTERLDLLDDARRAFGFTITGGEHRLANYRSVTTVSELAPAAPAKICTVVLESYVVDVPEGNSEEDTRLFADTVVRLALQKLKSLAEANATSAAAQATPPPQAE	3900

For the binder shown here, H6-SUMO-tagged FePYR1 G103A (protein) MEQQPAAAEPEVPAGLGLTAAEYAELQPTVEAYHRYAVGPGQCSSLVAQRIEAPAAAVWAIVRRFDCPQVYKHFIRSCALRPDPDAGDELRPGRLREVSVISALPASTSTERLDLLDDARRAFGFTITGGEHRLANYRSVTTVSELAPAAPAKICTVVLESYVVDVPEGNSEEDTRLFADTVVRLNLQKLKSLAEANATSAAAQATPPPQAE , give the reported response (photon counts). 1800

Ref: paper PMC5656587
